Tested on: MDA-MB-435 melanoma
experiment: NCI-60 one-dose screen, 48 h (100 = growth as untreated, 0 = no growth, -100 = all killed)
condition label: 10 µM unless noted
Procedure: Growth inhibition of the MDA-MB-435 human Melanoma tumor cell line is measured as a screen for anti-cancer activity. Cells are grown in 96 well plates and exposed to the test compound for 48 hours. Compounds are tested at a single concentration, which is 10^-5 M for most compounds. The reported endpoint is percent growth (GI% or GIPRCNT), where numbers from 0 - 100% represent growth inhibition, and numbers from -100% - 0 represent cell death. […]
About 83,000 compounds went through this panel and 20% of them were active in at least one assay; those are over-represented in the sample as a whole.
measured metric: growth (%)
Provide the reading as a plain figure in %.

>>> assay_result("COc1ccc(N2CCN(CC(=O)N3CCN(c4nnc(-c5ccc(Cl)cc5)c(-c5ccc(Cl)cc5)n4)CC3)CC2)cc1")
57.5
>>> assay_result("CCC(C)C1NC(=O)C(CCNCS(=O)(=O)O)NC(=O)C(NC(=O)C(CCNCS(=O)(=O)O)NC(=O)C(NC(=O)C(CCNCS(=O)(=O)O)NC(=O)CCCCC(C)C)C(C)O)CCNC(=O)C(C(C)O)NC(=O)C(CCNCS(=O)(=O)O)NC(=O)C(CCNCS(=O)(=O)O)NC(=O)C(C(C)CC)NC1=O (configuration not stated)")
-56.2
>>> assay_result("Cc1n(Cc2ccc3ccccc3c2)c2ccccc2[n+]1Cc1ccc2ccccc2c1")
-72.8
>>> assay_result("C[C@]12CC[C@H](O)CC1=CC[C@@H]1[C@@H]2CC[C@]2(C)C(c3cccnc3)=CC[C@@H]12")
19.8
>>> assay_result("Cn1c(N2N=C(c3ccc(Cl)cc3)CC2c2ccccc2)nc(-c2ccccc2)c(C#N)c1=O (configuration not stated)")
83.6

Query block: // query growth value for entry `CCOC(=O)OCC(=O)[C@@]1(O)CC[C@H]2[C@@H]3CCC4=CC(=O)CC[C@]4(C)[C@H]3[C@@H](O)C[C@@]21C`
Result block: 111

Query block: // query growth value for entry `O=C(COc1ccc(/C=C2\Oc3ccc4ccccc4c3C2=O)cc1)c1ccc(Cl)cc1`
Result block: 101

---

Tested on: NCI-H226 lung
experiment: NCI-60 one-dose screen, 48 h
condition label: 10 µM unless noted
Compounds without any hit were thinned out: in the full panel of roughly 83,000, 20% have a hit. Active and inactive are the calls of the source. The calls were made as follows: active = growth percent below 10; inactive = the rest.
Assign a class; possible classes are active, inactive

Worked examples follow.
>>> assigned_label("COCCCNS(=O)(=O)c1ncnc2nc[nH]c12")
"inactive"
>>> assigned_label("O=C(COc1cccc(/C=C2\\Oc3ccc4ccccc4c3C2=O)c1)c1ccc(Cl)cc1")
"inactive"
>>> assigned_label("N#CC1c2ccccc2C=CN1C(=O)N(c1ccccc1)c1ccccc1 (stereo unspecified)")
"inactive"
>>> assigned_label("COc1ccc(-c2ccc(O)c(C(=O)/C=C/c3cc(OC)c(OC)c(OC)c3)c2)cc1")
"inactive"
>>> assigned_label("N[C@H](CS)C(=O)O")
"inactive"
>>> assigned_label("COc1ccc(Cl)cc1Nc1nc(C(F)(F)F)ccc1C(=O)N/N=C/c1c(Cl)cccc1Cl")
"inactive"
>>> assigned_label("COc1cc(/C=C/C(=O)c2c(C)n([O-])c3ccc(Cl)cc3[n+]2=O)cc(OC)c1OC")
"inactive"
>>> assigned_label("COc1c(Br)cc(C(c2cc(Br)c(OC)c(Br)c2)c2ccccc2C(=O)O)cc1Br")
"inactive"
>>> assigned_label("N/C(=N\\C(N)=N\\c1nc2ccccc2s1)c1ccnc(Cl)c1")
"inactive"
>>> assigned_label("CCCCCCCC[Si](OCC)(OCC)OCC")
"inactive"

Query block: Identify the outcome logged in this assay for the molecule shown: `OCc1n(Cc2ccc3ccccc3c2)cc[n+]1Cc1ccc2ccccc2c1`
Result block: inactive

Query block: Identify the outcome logged in this assay for the molecule shown: `COc1ccc(NC(=O)[C@@H]2C[C@H]2c2ccccc2)c(C(N)=O)c1`
Result block: inactive

Query block: Identify the outcome logged in this assay for the molecule shown: `c1ccc2nc(Cn3c[n+](Cc4ccc5ccccc5n4)c4ccccc43)ccc2c1`
Result block: inactive

Query block: Identify the outcome logged in this assay for the molecule shown: `C[C@H]1C(=O)N2c3ccccc3[C@@]3(O)C[C@@H](n4cnc5ccccc5c4=O)C(=O)N1[C@@H]23`
Result block: inactive

Query block: Identify the outcome logged in this assay for the molecule shown: `Nc1ccc(N=Nc2ccccc2)cc1[N+](=O)[O-]`
Result block: inactive

Query block: Identify the outcome logged in this assay for the molecule shown: `O=C1/C(=C/c2ccccc2O)C(=S)SN1Cc1ccco1`
Result block: inactive

Query block: Identify the outcome logged in this assay for the molecule shown: `CCCCCN(CCCCC)CCCNc1c2c(nc3ccc(Cl)cc13)CCCC2`
Result block: inactive

Query block: Identify the outcome logged in this assay for the molecule shown: CC1c2ccccc2-c2ccccc2N1C (stereo unspecified)
Result block: inactive
